Documented inhibition at 1 µM across a set of molecules
# study_system: ROCK2 protein (Homo sapiens, UniProt O75116)
# Sequence (O75116 whole entry): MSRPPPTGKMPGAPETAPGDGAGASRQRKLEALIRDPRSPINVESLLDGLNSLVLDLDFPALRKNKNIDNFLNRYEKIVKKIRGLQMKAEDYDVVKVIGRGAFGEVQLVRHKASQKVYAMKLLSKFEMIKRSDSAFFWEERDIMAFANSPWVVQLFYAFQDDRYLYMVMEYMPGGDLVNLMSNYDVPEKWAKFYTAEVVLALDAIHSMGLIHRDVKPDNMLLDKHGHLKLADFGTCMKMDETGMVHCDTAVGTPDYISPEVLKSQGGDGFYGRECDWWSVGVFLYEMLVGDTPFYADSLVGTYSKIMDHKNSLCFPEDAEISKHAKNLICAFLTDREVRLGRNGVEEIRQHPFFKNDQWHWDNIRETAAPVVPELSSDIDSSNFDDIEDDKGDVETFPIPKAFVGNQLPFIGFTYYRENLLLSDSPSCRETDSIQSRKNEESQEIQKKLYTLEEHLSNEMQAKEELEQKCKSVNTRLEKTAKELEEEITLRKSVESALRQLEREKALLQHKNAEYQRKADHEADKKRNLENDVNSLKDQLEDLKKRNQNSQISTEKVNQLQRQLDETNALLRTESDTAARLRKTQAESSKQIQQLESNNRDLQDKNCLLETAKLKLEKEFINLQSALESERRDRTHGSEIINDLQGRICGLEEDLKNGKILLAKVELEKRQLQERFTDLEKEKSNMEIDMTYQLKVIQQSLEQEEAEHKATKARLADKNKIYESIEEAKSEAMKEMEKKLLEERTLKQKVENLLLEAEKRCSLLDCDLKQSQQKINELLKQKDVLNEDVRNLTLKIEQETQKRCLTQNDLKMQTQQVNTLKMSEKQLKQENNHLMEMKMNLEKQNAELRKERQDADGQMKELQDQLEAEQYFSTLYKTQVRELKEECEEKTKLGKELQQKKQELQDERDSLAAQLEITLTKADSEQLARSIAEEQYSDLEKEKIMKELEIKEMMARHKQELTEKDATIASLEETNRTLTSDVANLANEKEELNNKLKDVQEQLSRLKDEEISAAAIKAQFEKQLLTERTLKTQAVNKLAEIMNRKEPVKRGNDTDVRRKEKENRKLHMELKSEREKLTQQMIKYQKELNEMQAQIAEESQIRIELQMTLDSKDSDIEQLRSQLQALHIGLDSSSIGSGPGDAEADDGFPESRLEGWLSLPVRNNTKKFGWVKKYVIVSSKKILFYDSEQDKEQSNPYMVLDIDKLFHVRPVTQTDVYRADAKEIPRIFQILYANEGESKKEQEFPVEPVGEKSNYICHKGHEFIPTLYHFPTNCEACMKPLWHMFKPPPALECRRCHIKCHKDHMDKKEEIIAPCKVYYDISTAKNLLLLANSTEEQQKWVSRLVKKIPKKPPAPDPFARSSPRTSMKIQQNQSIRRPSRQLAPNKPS
# assay_details: Degradation inducing activity of ROCK2 protein in HUVEC cells, Western blotting (Simple Western JESS)
# Type: cell-based
# Set-up: endogenous in cells; host or cells: HUVEC (ATCC CRL-1730)
# reported_conditions: HUVEC, 24 h, degradation rate at 1 µM

smiles_record	inhibition at 1 µM
C[C@@H]1CN(CC(=O)N2CC(C)(C)c3ncc(Cc4ccc(F)cc4)cc32)[C@@H](CN(C)CCOCCOCCOCCOCCOCCOCCN[C@H](Cc2cccc(F)c2)C(=O)Nc2ccc(-c3ccncc3)cc2)CN1	< 25%
C[C@@H]1CN(CC(=O)N2CC(C)(C)c3ncc(Cc4ccc(F)cc4)cc32)[C@@H](CN(C)CCOCCOCCOCCOCCN[C@H](Cc2cccc(F)c2)C(=O)Nc2ccc(-c3ccncc3)cc2)CN1	50 to 75%
COC[C@H]1CN[C@H](C)CN1CC(=O)N1CC(C)(C)c2ncc(Cc3cccc(OCCOCCOCCOCCOCCOCCN[C@H](C)c4ccc(C(=O)Nc5ccncc5)cc4)c3)cc21	50 to 75%
C[C@@H]1CN(CC(=O)N2CC(C)(C)c3ncc(Cc4ccc(F)cc4)cc32)[C@@H](CN(C)CCOCCOCCOCCN[C@H](C)c2ccc(C(=O)Nc3ccncc3)cc2)CN1	50 to 75%
COC[C@H]1CN[C@H](C)CN1CC(=O)N1CC(C)(C)c2nc(CN(C)CCOCCOCCN[C@H](Cc3cccc(F)c3)C(=O)Nc3ccc(-c4ccncc4)cc3)c(Cc3ccc(F)cc3)cc21	< 25%

* * *

# study_system: ROCK2 protein (Homo sapiens)
# assay_details: Degradation inducing activity of ROCK2 protein in HUVEC cells, Western blotting (Simple Western JESS)
# Format: cell-based
# Parameters: endogenous in cells; host or cells: HUVEC (ATCC CRL-1730)
# reported_conditions: HUVEC, 24 h, degradation rate at 10 µM
Documented inhibition at 10 µM across a set of compounds
observable: inhibition at 10 µM

smiles_record	observable	data_value
COC[C@H]1CN[C@H](C)CN1CC(=O)N1CC(C)(C)c2ncc(Cc3cccc(OCCOCCOCCOCCOCCN[C@H](C)c4ccc(C(=O)Nc5ccncc5)cc4)c3)cc21	inhibition at 10 µM	25 to 50%
COC[C@H]1CN[C@H](C)CN1CC(=O)N1CC(C)(C)c2ncc(Cc3cccc(OCCOCCOCCOCCOCCOCCOCCN[C@H](C)c4ccc(C(=O)Nc5ccncc5)cc4)c3)cc21	inhibition at 10 µM	50 to 75%
COC[C@H]1CN[C@H](C)CN1CC(=O)N1CC(C)(C)c2ncc(Cc3cccc(OCCOCCOCCOCCOCCOCCOCCOCCN[C@H](Cc4cccc(F)c4)C(=O)Nc4ccc(-c5ccncc5)cc4)c3)cc21	inhibition at 10 µM	50 to 75%

* * *

# study_system: ROCK2 protein (Homo sapiens)
# assay_details: Degradation inducing activity of ROCK2 protein in HUVEC cells, Western blotting (Simple Western JESS)
# Assay type: cell-based
# Set-up: endogenous in cells; host or cells: HUVEC (ATCC CRL-1730)
# reported_conditions: HUVEC, 24 h, degradation rate at 10 µM
# Description: In vitro degradation inducing activity of ROCK2 protein of compounds of Examples was evaluated by Western Blotting (WB). By a test compound, 10 mM DMSO solution was prepared, which was used as a 10 µM test compound solution. […] The western blotting was performed using Simple Western JESS (protein simple). […] The standardized expression level data of the control (DMSO) was taken as 100%, and the degradation rate (%) was calculated from the average standardized expression level data of the test compound. […]
observable: inhibition at 10 µM

smiles_record	data_value
C[C@@H]1CN(CC(=O)N2CC(C)(C)c3ncc(Cc4ccc(F)cc4)cc32)[C@@H](CN(C)CCOCCOCCOCCOCCOCCN[C@H](Cc2cccc(F)c2)C(=O)Nc2ccc(-c3ccncc3)cc2)CN1	25 to 50%
COC[C@H]1CN[C@H](C)CN1CC(=O)N1CC(C)(C)c2nc(CN(C)CCOCCOCCNC[C@@H](C(=O)Nc3ccc4cnccc4c3)c3ccccc3)c(Cc3ccc(F)cc3)cc21	≥ 75%
COC[C@H]1CN[C@H](C)CN1CC(=O)N1CC(C)(C)c2nc(CN(C)CCOCCOCCOCCOCCOCCN[C@H](C)c3ccc(C(=O)Nc4ccncc4)cc3)c(Cc3ccc(F)cc3)cc21	≥ 75%
COC[C@H]1CN[C@H](C)CN1CC(=O)N1CC(C)(C)c2ncc(Cc3ccccc3OCCOCCOCCOCCOCCOCCNC[C@@H](C(=O)Nc3ccc4cnccc4c3)c3ccccc3)cc21	≥ 75%
COC[C@H]1CN[C@H](C)CN1CC(=O)N1CC(C)(C)c2ncc(Cc3cccc(OCCOCCOCCOCCOCCNC[C@@H](C(=O)Nc4ccc5cnccc5c4)c4ccccc4)c3)cc21	≥ 75%
